SYSTEM_UNDER_TEST: BRG1 (Homo sapiens, UniProt P51532)
Construct: either BRM primary antibody (Cell signaling Cat #11966) or BRG primary antibody (Abcam, ab 110641); endogenous in cells; host or cells: SW1573
Sequence (P51532 whole entry): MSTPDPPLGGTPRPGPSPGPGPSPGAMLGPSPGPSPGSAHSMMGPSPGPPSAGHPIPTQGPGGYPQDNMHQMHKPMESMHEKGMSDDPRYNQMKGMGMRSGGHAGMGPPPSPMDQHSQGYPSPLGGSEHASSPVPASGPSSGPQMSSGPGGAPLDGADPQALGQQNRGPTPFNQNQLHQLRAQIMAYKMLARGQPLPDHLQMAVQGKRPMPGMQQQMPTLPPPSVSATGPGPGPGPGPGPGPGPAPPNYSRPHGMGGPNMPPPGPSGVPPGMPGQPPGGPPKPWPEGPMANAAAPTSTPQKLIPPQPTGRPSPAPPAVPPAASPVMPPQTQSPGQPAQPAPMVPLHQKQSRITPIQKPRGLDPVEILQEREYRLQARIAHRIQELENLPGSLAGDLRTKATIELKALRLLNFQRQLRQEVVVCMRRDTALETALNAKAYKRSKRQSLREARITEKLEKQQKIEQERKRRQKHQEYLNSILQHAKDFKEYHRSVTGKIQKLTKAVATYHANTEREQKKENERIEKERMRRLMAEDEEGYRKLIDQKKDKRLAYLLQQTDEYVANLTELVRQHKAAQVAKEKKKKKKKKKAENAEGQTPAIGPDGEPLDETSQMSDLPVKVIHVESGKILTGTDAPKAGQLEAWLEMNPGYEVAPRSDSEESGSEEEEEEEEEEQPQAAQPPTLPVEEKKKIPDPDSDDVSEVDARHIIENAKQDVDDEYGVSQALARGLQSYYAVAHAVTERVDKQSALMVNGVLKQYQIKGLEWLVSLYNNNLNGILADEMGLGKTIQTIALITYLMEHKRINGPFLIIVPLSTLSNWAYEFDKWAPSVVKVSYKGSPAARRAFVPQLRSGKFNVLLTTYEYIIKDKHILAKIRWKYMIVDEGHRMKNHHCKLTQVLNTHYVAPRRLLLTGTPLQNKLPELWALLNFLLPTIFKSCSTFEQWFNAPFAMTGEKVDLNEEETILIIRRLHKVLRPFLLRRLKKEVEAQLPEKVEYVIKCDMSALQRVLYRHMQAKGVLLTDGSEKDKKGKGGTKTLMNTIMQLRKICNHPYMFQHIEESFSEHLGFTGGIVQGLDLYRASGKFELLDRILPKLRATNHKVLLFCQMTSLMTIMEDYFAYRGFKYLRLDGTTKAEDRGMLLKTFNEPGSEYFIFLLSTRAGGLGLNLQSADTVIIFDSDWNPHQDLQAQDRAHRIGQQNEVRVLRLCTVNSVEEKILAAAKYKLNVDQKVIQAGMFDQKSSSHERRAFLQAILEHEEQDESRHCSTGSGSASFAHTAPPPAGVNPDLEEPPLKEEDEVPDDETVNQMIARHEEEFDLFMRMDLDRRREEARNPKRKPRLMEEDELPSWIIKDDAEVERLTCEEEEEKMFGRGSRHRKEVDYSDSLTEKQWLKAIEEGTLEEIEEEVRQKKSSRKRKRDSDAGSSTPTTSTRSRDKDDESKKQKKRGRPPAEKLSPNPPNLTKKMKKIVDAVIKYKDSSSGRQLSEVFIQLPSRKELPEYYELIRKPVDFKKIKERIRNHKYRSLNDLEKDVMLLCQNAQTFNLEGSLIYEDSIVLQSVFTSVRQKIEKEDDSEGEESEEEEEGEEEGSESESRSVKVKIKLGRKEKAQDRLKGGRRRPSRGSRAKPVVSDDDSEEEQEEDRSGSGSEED
ASSAY_COMMENT: Immunofluorescence assay for BRG1 degradation in SW1573 cells
Assay type: cell-based
EXPERIMENTAL_CONTEXT: SW1573, 20 h, 20 hours incubation, normalized to a known degrader control, read-out: BRG1 IF Degradation Sinf (%)
READOUT_NAME: Dmax

> print(dat)
                                   compound  readout.name  recorded.value
1  Nc1nnc(-c2ccccc2O)cc1N1CC2CCC(C1)N2c1ccnc(C#CCN2C[C@@H]3C[C@H]2[C@H]2C[C@@H]32)c1          Dmax       30 to 70%
2  Nc1nnc(-c2ccccc2O)cc1N1CC2CCC(C1)N2c1ccnc(C#CCN2CC3CC2CC3(F)F)c1 (stereo not shown)          Dmax        0 to 30%

Prompt: Looking for the measured Dmax of `CS(=O)(=O)N1CCC2(CN(CC#Cc3cc(N4C5CCC4CN(c4cc(-c6ccccc6O)nnc4N)C5)ccn3)C2)C1` , can you help?
Completion: 0 to 30%

Prompt: Which Dmax is reported for this compound? `Nc1nnc(-c2ccccc2O)cc1N1CC2CCC(C1)N2c1ccnc(C#CCN2CC3(CC(F)C3)C2)c1`
Completion: 30 to 70%

Prompt: Give its Dmax value. Item: Nc1nnc(-c2ccccc2O)cc1N1CC2CCC(C1)N2c1ccnc(C#CCN2CC3CNCC3C2)c1 (stereo not shown)
Completion: 30 to 70%

Prompt: Can you look up the measured Dmax of Nc1nnc(-c2ccccc2O)cc1N1CC2CCC(C1)N2c1ccnc(C#CCN2CC3CC2CO3)c1 (stereo not shown) for me?
Completion: 30 to 70%

Prompt: Given the entry `C[C@@H](N)C#Cc1cc(N2C3CCC2CN(c2cc(-c4ccccc4O)nnc2N)C3)ccn1` , report its measured Dmax.
Completion: 30 to 70%

* * *

In this section, each of the molecules is paired with its reported DC50.
SYSTEM_UNDER_TEST: UniProtKB P51531
ASSAY_COMMENT: Immunofluorescence assay for BRM degradation in SW1573 cells
Format: cell-based
Design: treated overnight at 4° C. with either BRM primary antibody (Cell signaling Cat #11966) or BRG primary antibody; endogenous in cells; host or cells: SW1573
EXPERIMENTAL_CONTEXT: 20 hours incubation, immunofluorescence mean nuclear signal, read-out: BRM IF Degradation IC50

> print(dat)
                                   molecule  readout.name  recorded.value
1  Nc1nnc(-c2ccccc2O)cc1N1CC2CCC(C1)N2c1ccnc(C#C[C@H]2CC[C@H](N)CC2)c1 [Compound 29]          DC50        > 100 nM
2  CC1CC(O)CCN(CC#Cc2cc(N3C4CCC3CN(c3cc(-c5ccccc5O)nnc3N)C4)ccn2)C1 (stereo not drawn) [Compound 219]          DC50         < 10 nM

Kindly consider the entry below.
Prompt: Can you look up the measured DC50 of Nc1nnc(-c2ccccc2O)cc1N1CC2CCC(C1)N2c1ccnc(C#CCN2CCCC(O)CC2)c1 (stereo not drawn) [Compound 191] for me?
Completion: < 10 nM

* * *

SYSTEM_UNDER_TEST: BRM (Homo sapiens)
ASSAY_COMMENT: Immunofluorescence assay for BRM degradation in SW1573 cells
Type: cell-based
Set-up: treated overnight at 4° C. with either BRM primary antibody (Cell signaling Cat #11966) or BRG primary antibody; endogenous in cells; host or cells: SW1573
EXPERIMENTAL_CONTEXT: 20 hours incubation, immunofluorescence mean nuclear signal, read-out: BRM IF Degradation IC50
READOUT_NAME: DC50

> print(dat)
                                   compound   system.under.test  recorded.value
1  Nc1nnc(-c2ccccc2O)cc1N1CC2CCC(C1)N2c1ccnc(C#CCN2CC3CNCC3C2)c1 (stereo not shown) [Compound 54]  BRM (Homo sapiens)        > 0.1 µM
2  CC1CN(CC#Cc2cc(N3C4CCC3CN(c3cc(-c5ccccc5O)nnc3N)C4)ccn2)CCN1 (stereo not shown) [Compound 40]  BRM (Homo sapiens)        > 0.1 µM
3  Nc1nnc(-c2ccccc2O)cc1N1CC2CCC(C1)N2c1ccnc(C#CCCN2CCCCC2)c1 [Compound 182]  BRM (Homo sapiens)        > 0.1 µM
4  CC1CCN(CC#Cc2cc(N3C4CCC3CN(c3cc(-c5ccccc5O)nnc3N)C4)ccn2)CC1 [Compound 138]  BRM (Homo sapiens)  0.01 to 0.1 µM
5  Nc1nnc(-c2ccccc2O)cc1N1CC2CCC(C1)N2c1ccnc(C#CCN2CC3CCC(C3)C2)c1 [Compound 93]  BRM (Homo sapiens)       < 0.01 µM
6  Nc1nnc(-c2ccccc2O)cc1N1CC2CCC(C1)N2c1ccnc(C#CCN2CC(C3CCOC3)C2)c1 (stereo not shown) [Compound 157]  BRM (Homo sapiens)  0.01 to 0.1 µM
7  Nc1nnc(-c2ccccc2O)cc1N1CC2CCC(C1)N2c1ccnc(C#CCN2CC(O)(C3CC3)C2)c1 [Compound 154]  BRM (Homo sapiens)       < 0.01 µM
8  NCCCCCCc1cc(N2C3CCC2CN(c2cc(-c4ccccc4O)nnc2N)C3)ccn1 [Compound 20]  BRM (Homo sapiens)  0.01 to 0.1 µM

Prompt: Under BRM (Homo sapiens): DC50 value of CC1(C)CC(O)CCN(CC#Cc2cc(N3C4CCC3CN(c3cc(-c5ccccc5O)nnc3N)C4)ccn2)C1 (stereo not shown) [Compound 213] ?
Completion: 0.01 to 0.1 µM

Prompt: Kindly state the measured DC50 obtained for Nc1nnc(-c2ccccc2O)cc1N1CC2CCC(C1)N2c1ccnc(C#CCN2CCN(C3CC3)CC2)c1 [Compound 38] with BRM (Homo sapiens).
Completion: 0.01 to 0.1 µM

* * *

SYSTEM_UNDER_TEST: BRM (Homo sapiens, UniProt P51531)
Sequence (P51531 whole entry): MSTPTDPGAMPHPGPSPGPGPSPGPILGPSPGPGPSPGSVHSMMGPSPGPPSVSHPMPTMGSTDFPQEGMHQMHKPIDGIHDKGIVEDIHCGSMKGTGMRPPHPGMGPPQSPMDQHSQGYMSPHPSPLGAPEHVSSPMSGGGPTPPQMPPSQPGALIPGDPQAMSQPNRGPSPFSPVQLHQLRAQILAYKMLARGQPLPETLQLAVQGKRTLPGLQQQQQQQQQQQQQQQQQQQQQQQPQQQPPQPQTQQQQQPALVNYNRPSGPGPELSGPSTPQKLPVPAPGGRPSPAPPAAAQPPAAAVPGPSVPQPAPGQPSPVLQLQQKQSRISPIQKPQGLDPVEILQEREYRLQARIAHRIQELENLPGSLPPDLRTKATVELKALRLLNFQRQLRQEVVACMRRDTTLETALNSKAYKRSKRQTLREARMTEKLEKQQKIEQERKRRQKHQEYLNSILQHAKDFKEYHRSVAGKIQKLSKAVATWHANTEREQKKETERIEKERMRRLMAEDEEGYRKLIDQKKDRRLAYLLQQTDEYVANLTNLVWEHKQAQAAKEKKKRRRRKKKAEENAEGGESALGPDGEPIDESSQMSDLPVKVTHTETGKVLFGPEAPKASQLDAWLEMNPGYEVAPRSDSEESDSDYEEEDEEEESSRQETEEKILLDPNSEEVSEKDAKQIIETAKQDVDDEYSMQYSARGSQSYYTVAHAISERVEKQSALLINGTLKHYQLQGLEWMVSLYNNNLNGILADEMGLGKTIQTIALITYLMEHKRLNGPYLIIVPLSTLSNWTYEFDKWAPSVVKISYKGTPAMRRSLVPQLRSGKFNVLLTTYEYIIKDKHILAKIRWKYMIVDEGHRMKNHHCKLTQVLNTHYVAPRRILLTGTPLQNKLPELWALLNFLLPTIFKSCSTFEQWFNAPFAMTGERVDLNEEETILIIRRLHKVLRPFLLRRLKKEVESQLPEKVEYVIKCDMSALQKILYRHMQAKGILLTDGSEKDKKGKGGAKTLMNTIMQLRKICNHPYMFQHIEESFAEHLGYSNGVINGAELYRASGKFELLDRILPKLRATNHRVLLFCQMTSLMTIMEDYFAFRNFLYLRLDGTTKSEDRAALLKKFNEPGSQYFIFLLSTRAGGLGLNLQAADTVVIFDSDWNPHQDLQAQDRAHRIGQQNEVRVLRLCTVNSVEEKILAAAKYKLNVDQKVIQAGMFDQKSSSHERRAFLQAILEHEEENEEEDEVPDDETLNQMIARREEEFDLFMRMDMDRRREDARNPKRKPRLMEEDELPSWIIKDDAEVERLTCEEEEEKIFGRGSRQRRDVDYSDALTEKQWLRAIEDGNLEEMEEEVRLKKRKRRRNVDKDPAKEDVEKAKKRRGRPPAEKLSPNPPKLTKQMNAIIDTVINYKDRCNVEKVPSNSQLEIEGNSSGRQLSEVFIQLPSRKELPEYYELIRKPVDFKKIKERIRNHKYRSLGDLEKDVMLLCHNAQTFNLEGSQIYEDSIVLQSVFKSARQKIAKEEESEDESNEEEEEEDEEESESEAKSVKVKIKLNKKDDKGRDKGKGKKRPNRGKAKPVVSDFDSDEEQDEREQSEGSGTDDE
ASSAY_COMMENT: Immunofluorescence assay for BRM degradation in SW1573 cells
Assay type: cell-based
Parameters: treated overnight at 4° C. with either BRM primary antibody (Cell signaling Cat #11966) or BRG primary antibody; endogenous in cells; host or cells: SW1573
EXPERIMENTAL_CONTEXT: 20 hours incubation, immunofluorescence mean nuclear signal, read-out: BRM IF Degradation IC50
READOUT_NAME: DC50

// below: answered compounds
> print(dat)
                                   compound  readout.name  recorded.value
1  Nc1nnc(-c2ccccc2O)cc1N1CC2CCC(C1)N2c1ccnc(C#CCN2CCC3CCC2CC3)c1          DC50         < 10 nM
2  Nc1nnc(-c2ccccc2O)cc1N1CC2CCC(C1)N2c1ccnc(C#CCN2CC3CC(CO)CC32)c1 (stereo not shown)          DC50    10 to 100 nM
3  COCC1CCCCN1CC#Cc1cc(N2C3CCC2CN(c2cc(-c4ccccc4O)nnc2N)C3)ccn1 (stereo not shown)          DC50    10 to 100 nM
4  Nc1nnc(-c2ccccc2O)cc1N1CC2CCC(C1)N2c1ccnc(C#CCN2CCC3CC[C@@H](O)C32)c1 (stereo partly shown)          DC50         < 10 nM
5  Nc1nnc(-c2ccccc2O)cc1N1CC2CCC(C1)N2c1ccnc(C#CCN2CCC23CCOCC3)c1          DC50         < 10 nM
6  Nc1nnc(-c2ccccc2O)cc1N1CC2CCC(C1)N2c1ccnc(C#CCN2CCCC(F)(F)CC2)c1          DC50         < 10 nM

Attention now turns to another entry.
Prompt: Value wanted: DC50 (BRM (Homo sapiens, UniProt P51531)) of entry Oc1ccccc1-c1cc2c(nn1)NC[C@@H]1CN(c3ccnc(C#CCN4CCCCCC4)c3)CCN21 (single isomer, unassigned)
Completion: < 10 nM

* * *

SYSTEM_UNDER_TEST: BRG1 (Homo sapiens, UniProt P51532)
Construct: either BRM primary antibody (Cell signaling Cat #11966) or BRG primary antibody (Abcam, ab 110641); endogenous in cells; host or cells: SW1573
ASSAY_COMMENT: Immunofluorescence assay for BRG1 degradation in SW1573 cells
Format: cell-based
EXPERIMENTAL_CONTEXT: SW1573, 20 h, 20 hours incubation, normalized to a known degrader control, read-out: BRG1 IF Degradation Sinf (%)
READOUT_NAME: Dmax

The cases that follow already have their Dmax on record.
> print(dat)
                                   compound  readout.name  recorded.value
1  Nc1nnc(-c2ccccc2O)cc1N1CC2CCC(C1)N2c1ccnc(C#CCN2CCn3cccc3C2)c1 [Compound 107]          Dmax        0 to 30%
2  COCC1CCCCN1CC#Cc1cc(N2C3CCC2CN(c2cc(-c4ccccc4O)nnc2N)C3)ccn1 (stereo not shown) [Compound 41]          Dmax       30 to 70%
3  Nc1nnc(-c2ccccc2O)cc1N1CC2CCC(C1)N2c1ccnc(C#CCN2CCCC(O)CC2)c1 (stereo not shown) [Compound 191]          Dmax      71 to 120%
4  Nc1nnc(-c2ccccc2O)cc1N1CC2CCC(C1)N2c1ccnc(C#CCN2CCOCC2)c1 [Compound 9]          Dmax        0 to 30%
5  CC1CCCCN(CC#Cc2cc(N3C4CCC3CN(c3cc(-c5ccccc5O)nnc3N)C4)ccn2)C1 (stereo not shown) [Compound 192]          Dmax      71 to 120%
6  CNC(=O)[C@H]1CCN(CC#Cc2cc(N3C4CCC3CN(c3cc(-c5ccccc5O)nnc3N)C4)ccn2)C1 [Compound 122]          Dmax       30 to 70%

Please examine the following record next.
Prompt: I'd like to know its Dmax. The compound in question is Nc1nnc(-c2ccccc2O)cc1N1CC2CCC(C1)N2c1ccnc(C#CCN2CCC(F)CC2)c1 [Compound 131]
Completion: 0 to 30%
